experiment: self-splicing fitness, log relative to wild type (ln ratio); higher = more splicing; Tetrahymena group I intron in knt gene, E. coli kanamycin selection, DiMSum; sequences stand for … in CUCUCU…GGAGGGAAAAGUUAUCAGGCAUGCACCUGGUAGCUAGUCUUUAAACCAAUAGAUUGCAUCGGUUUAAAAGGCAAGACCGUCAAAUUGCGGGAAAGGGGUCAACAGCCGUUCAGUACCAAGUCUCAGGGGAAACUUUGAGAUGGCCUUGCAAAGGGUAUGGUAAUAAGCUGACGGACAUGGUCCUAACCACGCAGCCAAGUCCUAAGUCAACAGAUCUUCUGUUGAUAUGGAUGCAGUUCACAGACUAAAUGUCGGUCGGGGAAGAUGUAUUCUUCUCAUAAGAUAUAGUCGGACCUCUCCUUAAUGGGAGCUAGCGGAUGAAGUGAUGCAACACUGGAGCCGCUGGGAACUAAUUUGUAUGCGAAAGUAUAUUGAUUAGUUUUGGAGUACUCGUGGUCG; details: 30 °C;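 also: selection with 25 µg/mL kanamycin versus none on LB agar overnight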
In this section, each of the sequences is paired with its reported self-splicing fitness (ln).
Number, no unit, nothing else.

// worked examples, self-splicing fitness (ln) included
* ACUAAGCAAUAUUACGCAGC | -2.94
* CCACAGCAAUAUUACGUUGA | -3.67
* GUGCAGCAAUAUUACGGUAG | -1.05

query: Which self-splicing fitness (ln) reading was recorded for the sequence UGGGAGCAAUAUUACGUAAC ?
result: -1.63
